Entries annotated with measured melting point
readout-name: melting point

INSERT INTO measurements (mol_smiles, assay_result) VALUES
  ('CCc1ccc(Nc2nc3cc(NC(=O)c4ccc(CC)cc4)ccc3o2)cc1', '> 250 °C'),
  ('CCc1ccc(Nc2nc3cc(NC(=O)c4ccc([N+](=O)[O-])cc4Cl)ccc3o2)cc1', '> 250 °C'),
  ('CCc1ccc(Nc2nc3cc(NC(=O)c4ccccc4Nc4cccc(C(F)(F)F)c4)ccc3o2)cc1', '174 to 176 °C'),
  ('CCCCCCCc1ccc(C(=O)Nc2ccc3oc(Nc4ccc(CC)cc4)nc3c2)cc1', '244.8 to 246 °C'),
  ('CCc1ccc(Nc2nc3cc(NC(=O)c4ccc(Cl)cc4)ccc3o2)cc1', '> 250 °C'),
  ('CCOc1ccccc1C(=O)Nc1ccc2oc(Nc3ccc(CC)cc3)nc2c1', '181.6 to 182 °C'),
  ('CCc1ccc(Nc2nc3cc(NC(=O)c4cc(OC)c(OC)c(OC)c4)ccc3o2)cc1', '> 250 °C'),
  ('CCc1ccc(Nc2nc3cc(NC(=O)c4cc(F)cc(C(F)(F)F)c4)ccc3o2)cc1', '> 250 °C'),
  ('CCc1ccc(Nc2nc3cc(NC(=O)Cc4ccccc4)ccc3o2)cc1', '> 250 °C'),
  ('CCc1ccc(Nc2nc3cc(NC(=O)c4ccc(OC)c(OC)c4)ccc3o2)cc1', '> 250 °C');
